Test system: WPMY1-GM130-SQSTM1
Test: phenotypically active (imaging signature differs from DMSO and reproducible) at any of 0.3-9 uM (binary (1 = active, 0 = inactive)); higher = active
Settings: treatment time: 24 h
Counter-ions that a name gives are not always drawn.
measure: phenotypically active

CC1=C2[C@H]3OC(=O)[C@@H](C)[C@@H]3CC[C@@]2(C)C=CC1=O [alpha-Santonin] : 0
c1cncc(C2CC3CCN2CC3)c1 (configuration not stated) [RJR 2429 dihydrochloride] : 0
O=c1ccc2ccc3occc3c2o1 [Angelicin] : 0
CN1C2CCC1CC(O)C2 (configuration not stated) [Tropine] : 0
CCC(=O)O[C@](Cc1ccccc1)(c1ccccc1)[C@H](C)CN(C)C [propoxyphene] : 0
O=C(O)CC[N+](=O)[O-] [3-Nitropropionic acid] : 0
COc1cc2c3cc1Oc1cc(ccc1O)C[C@@H]1c4c(cc(OC)c(O)c4Oc4cccc(c4)C[C@@H]3N(C)CC2)CC[N+]1(C)C [Tubocurarine chloride pentahydrate (+)] : 0
CC(C)(N)Cc1ccccc1 [phentermine] : 1
C[C@H]1CCC2(NC1)O[C@H]1C[C@H]3[C@@H]4CC[C@H]5C[C@@H](O[C@@H]6O[C@H](CO)[C@H](O[C@@H]7O[C@H](CO)[C@@H](O)[C@H](O[C@@H]8OC[C@@H](O)[C@H](O)[C@H]8O)[C@H]7O[C@@H]7O[C@H](CO)[C@@H](O)[C@H](O)[C@H]7O)[C@H](O)[C@H]6O)CC[C@]5(C)[C@H]4CC[C@]3(C)[C@H]1[C@@H]2C (some centres not stated) [Tomatine] : 0
CCN1C[C@]2(COC)CC[C@H](O)[C@@]34[C@@H]5C[C@H]6[C@H](OC(C)=O)[C@@H]5[C@](O)(C[C@@H]6OC)[C@H](C[C@H]23)[C@H]14 [Condelphine] : 0
C[C@H]1CCCC=C[C@@H]2C[C@H](O)C[C@H]2[C@H](O)C=CC(=O)O1 [brefeldin-a] : 1
O=C1C=C2C=C[C@@H]3C[C@@]2(O1)[C@H]1CCCCN31 [Securinine] : 0

----------
Test system: A549-TUBA1B-RELA
Assay: phenotypically active (imaging signature differs from DMSO and reproducible) at any of 0.3-9 uM (binary (1 = active, 0 = inactive)); higher = active
Conditions: treatment time: 24 h
Structures can show the parent of a compound that is named as a salt.
Labels: label 1 for active, label 0 for inactive

Oc1ccc2c3c1O[C@H]1[C@@H](O)CC[C@@]4(O)[C@@H](C2)N(CC2CCC2)CC[C@]314 [nalbuphine] : label 0
C[C@@H]1CC[C@H]2[C@@H](C)C(=O)O[C@@H]3O[C@@]4(C)CC[C@@H]1[C@]32OO4 [Artemisinin] : label 1
c1ccc([C@@H]2C[C@H]2NC2CCNCC2)cc1 [GSK LSD 1 dihydrochloride] : label 0
CNCC(O)c1ccc(O)c(OC)c1 (stereo not drawn) [Metanephrine hydrochloride DL] : label 0
COC1=CC(=O)O[C@@H](/C=C/c2ccccc2)C1 [Kawain] : label 0
Cc1ccc(C[N+](C)(C)C)o1 [5-Methylfurmethiodide] : label 0
CCCCCOc1ccc(C(=O)c2cccc3ccccc23)c2ccccc12 : label 0
N#CC(C#N)=NNc1ccc(OC(F)(F)F)cc1 : label 1
O=C1NC(=O)c2c1c1c3ccccc3n3c1c1c2c2ccccc2n1C1CCC3O1 : label 1
CCN(CC)C(C)C(=O)c1ccccc1 (stereo not drawn) [amfepramone] : label 0
COc1cc2c(c(OC)c1OC)-c1ccc(O)c(=O)cc1[C@@H](N)CC2 [Trimethylcolchicinic acid] : label 1
CC1=C(O)C(=O)[C@@H]2O[C@@H]2C1=O [(-)-Terreic acid] : label 0
N#CC(C#N)=Cc1ccc(O)c(O)c1 : label 0

----------
Test system: HepG2-TUBA1B-RELA
Experiment: lowest phenotypically active concentration; higher = less potent
Details: treatment time: 24 h
Reported lowest phenotypically active concentration values follow for various compounds
measure: lowest phenotypically active concentration

O=C1NC(=S)N(c2cccc(Br)c2)C(=O)/C1=C/c1ccco1 : 9 µM
C[C@]12CC[C@H](O)C[C@H]1CC[C@@H]1[C@@H]2CC[C@]2(C)[C@@H](C3=CC(=O)OC3)CC[C@]12O : ≤ 0.3 µM
O=C(Nc1ccncc1)C(=O)c1cn(Cc2ccc(Cl)cc2)c2ccccc12 : 1 µM
C[C@H]1CCCC=C[C@@H]2C[C@H](O)C[C@H]2[C@H](O)C=CC(=O)O1 : ≤ 0.3 µM
COc1ccc(C[C@H]2NC[C@H](O)[C@H]2OC(C)=O)cc1 : ≤ 0.3 µM
COC(=O)[C@@]1(O)C[C@H]2O[C@]1(C)n1c3ccccc3c3c4c(c5c6ccccc6n2c5c31)C(=O)NC4 : ≤ 0.3 µM
COc1cc2c(c(OC)c1OC)-c1ccc(OC)c(=O)cc1[C@@H](NC(C)=O)CC2 : ≤ 0.3 µM
CC[C@H]1CN2CCc3cc(OC)c(OC)cc3[C@@H]2C[C@@H]1C[C@H]1NCCc2cc(OC)c(OC)cc21 : ≤ 0.3 µM
COc1cc2c(c(OC)c1OC)-c1ccc(O)c(=O)cc1[C@@H](N)CC2 : 9 µM
Cc1sc2c(c1C)C(c1ccc(Cl)cc1)=N[C@@H](CC(N)=O)c1nnc(C)n1-2 : ≤ 0.3 µM
CC[C@@H](C(=O)[C@@H](C)[C@@H](O)[C@H](C)[C@@H]1O[C@@H]([C@@H](CC)C(=O)O)CC[C@@H]1C)[C@H]1O[C@]2(C=C[C@@H](O)[C@]3(CC[C@@](C)([C@H]4CC[C@](O)(CC)[C@H](C)O4)O3)O2)[C@H](C)C[C@@H]1C [Salinomycin Sodium] : ≤ 0.3 µM

----------
Tested on: A549-CANX-COX4
Assay: phenotypically active (imaging signature differs from DMSO and reproducible) at any of 0.3-9 uM (binary (1 = active, 0 = inactive)); higher = active
Settings: treatment time: 24 h
measure: phenotypically active

C#CCN(C)[C@H](C)Cc1ccccc1 [selegiline] : 0
C=C1[C@H]2C[C@@]3([C@@H]1O)[C@@H](C[C@@H]2O)[C@]12[C@@H]4C[C@H]3[C@H]1N(CC)C[C@]4(C)CC[C@@H]2O [Napelline] : 0
NC(=O)CS(=O)C(c1ccccc1)c1ccccc1 (centres undefined) [modafinil] : 0
Cc1sc2c(c1C)C(c1ccc(Cl)cc1)=N[C@@H](CC(N)=O)c1nnc(C)n1-2 : 1

----------
Reported lowest phenotypically active concentration values follow for various molecules
Tested on: HepG2-ACTB-RAB5A
Assay: lowest phenotypically active concentration; higher = less potent
Conditions: treatment time: 24 h
measure: lowest phenotypically active concentration

CC[C@@H]1C=CC=CC[C@H](C)[C@@H](O)[C@](C)(O)C(=O)[C@H](C)[C@@H](O)[C@H](C)C(=O)[C@H](C)[C@@H](O)[C@H](C)C=CC(=O)O[C@H]2[C@@H](C)[C@@H](CC1)O[C@@]1(CC[C@@H](C)[C@@H](C[C@H](C)O)O1)[C@@H]2C : ≤ 0.3 µM
COC(=O)[C@@]1(O)C[C@H]2O[C@]1(C)n1c3ccccc3c3c4c(c5c6ccccc6n2c5c31)C(=O)NC4 : ≤ 0.3 µM
C=C(C)[C@H]1Cc2c(ccc3c2O[C@@H]2COc4cc(OC)c(OC)cc4[C@@H]2C3=O)O1 : ≤ 0.3 µM

----------
System: A549-ACTB-RAB5A
Test: phenotypically active (imaging signature differs from DMSO and reproducible) at any of 0.3-9 uM (binary (1 = active, 0 = inactive)); higher = active
Conditions: treatment time: 24 h
Labels: active, inactive

CC[C@@H](C)C(=O)O[C@H]1[C@H](O)[C@H]2[C@@H](CN3C[C@@H](C)CC[C@H]3[C@@]2(C)O)C2C[C@]34O[C@]5(O)[C@@H](OC(=O)[C@](C)(O)CC)CC[C@@]3(C)[C@@H]5[C@@H](OC(C)=O)[C@@H](OC(C)=O)[C@H]4[C@@]21O (stereo not given in full) : inactive
CC[C@H]1C2C[C@H]3[C@@H]4N(C)c5ccccc5[C@]45C[C@H](C2[C@H]5O)N3[C@@H]1O (stereo not given in full) : inactive
Clc1ccc2c(c1)C(c1ccccc1)=NCc1nncn1-2 : inactive
CN1[C@@H]2CC[C@H]1C[C@@H](OC(=O)[C@H](CO)c1ccccc1)C2 : inactive
CC[C@]12C=CCN3CC[C@]4(C(=C(C(=O)OC)C1)Nc1ccccc14)[C@@H]32 [Tabersonine dichlorhydrate] : active

----------
System: A549-TUBA1B-RELA
Experiment: phenotypically active (imaging signature differs from DMSO and reproducible) at any of 0.3-9 uM (binary (1 = active, 0 = inactive)); higher = active
Conditions: treatment time: 24 h
Reported phenotypically active values follow for various molecules
measure: phenotypically active

CN1[C@@H]2CC(=O)C[C@H]1[C@H](O)C2 [6-Hydroxytropinone] : 0
C=C1[C@@H](C)[C@H]2[C@H](Cc3ccccc3)NC(=O)[C@]23OC(=O)C=C[C@H](O)CCC[C@@H](C)CC=C[C@H]3[C@@H]1O [Cytochalasin B] : 1
C[C@]12C/C(=C\O)C(=O)C[C@@H]1CC[C@@H]1[C@@H]2CC[C@@]2(C)[C@H]1CC[C@]2(C)O [oxymetholone] : 0
COc1ccc(OC)c(C(O)C(C)N)c1 (centres undefined) [methoxamine] : 0

Taken from the supplement of paper PMC7411054.
